- Experimental system: T1, HLA-DR7 (DRB1*0701), purified from PITOUT cells (human)
- T1 chain 1: not shown
- T1 chain 2: not shown
- Test method notes: 125I-peptide inhibition, purified class II
Non-standard residues stand in square brackets, D forms with d. No end group written: not given here. Cha = N[C@@H](CC1CCCCC1)C(=O)O
// IC50 lookup, one value per entry
Only the number, expressed in nM, is required.

Task item: What does the record list as IC50 for [dA]A[Cha]AAAATLKAA[dA] [760.57] ?
Reply: 78

Task item: What does the record list as IC50 for [dA]A[Cha]VAAATLKAA[dA] [906.09] ?
Reply: 76

In the following, a different binder is considered.
Task item: What does the record list as IC50 for [dA]A[Cha]IAAATLKAA[dA] [906.11] ?
Reply: 31

Just for reference, patent US6413935 is where these values come from.
